Here the recorded GI50 is given for each entry.
# System: SN12C
# assay_info: Cytotoxicity against human SN12C cells
# Assay type: functional

[
  {
    "molecule": "O=C1c2ccc(O)cc2-c2c1c1ccc([N+](=O)[O-])cc1c(=O)n2CCCn1ccnc1",
    "GI50": "< 0.01 µM"
  },
  {
    "molecule": "COc1cc2c(cc1O)C(=O)c1c-2n(CCCN2CCOCC2)c(=O)c2cc([N+](=O)[O-])ccc12",
    "GI50": "< 0.01 µM"
  },
  {
    "molecule": "COc1cc2c(cc1O)C(=O)c1c-2n(CCCN)c(=O)c2cc([N+](=O)[O-])ccc12",
    "GI50": "< 0.01 µM"
  },
  {
    "molecule": "COc1cc2c(cc1O)C(=O)c1c-2n(CCCn2ccnc2)c(=O)c2cc([N+](=O)[O-])ccc12",
    "GI50": "< 0.01 µM"
  },
  {
    "molecule": "O=C1c2cc(O)ccc2-c2c1c1ccc([N+](=O)[O-])cc1c(=O)n2CCCn1ccnc1",
    "GI50": "< 0.01 µM"
  },
  {
    "molecule": "O=C1c2cc(O)ccc2-c2c1c1ccc([N+](=O)[O-])cc1c(=O)n2CCCBr",
    "GI50": "< 0.01 µM"
  },
  {
    "molecule": "O=C1c2cc(O)ccc2-c2c1c1ccc([N+](=O)[O-])cc1c(=O)n2CCCN1CCOCC1",
    "GI50": "< 0.01 µM"
  }
]
